Where these numbers come from: paper PMC10397247

- target: T1, 4H331-bA
- T1 chain: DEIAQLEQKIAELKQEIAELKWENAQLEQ
- experimentNotes: two-hybrid library CCNG1;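 note: natural log of median RNA to DNA barcode read ratio; higher means stronger binding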
Please enter 1 (yes) where interaction score is greater than or equal to -1, and 0 (no) where it is lower.

Solved cases (3 shown):
INSERT INTO assay_data (binder, class) VALUES
  ('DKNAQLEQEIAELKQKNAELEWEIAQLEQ [4H3185-bA]', '0 (no)'),
  ('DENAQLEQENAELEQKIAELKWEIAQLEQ [4H1193-bA]', '0 (no)'),
  ('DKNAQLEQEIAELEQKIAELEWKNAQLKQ [4H3112-bA]', '1 (yes)');

Ask: Evaluate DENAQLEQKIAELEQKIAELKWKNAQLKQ [4H1328-bA] : interaction score at minimum -1?
Reply: 1 (yes)

Ask: Try this binder next: DKNAQLEQEIAELKQKNAELEWKIAQLEQ [4H3189-bA]
Reply: 0 (no)
